This collection of values is drawn from patent US20230312686A1.

Recorded Fold affinity (KD) difference vs alkylated parent values for a group of binders are listed next.
target: T1, Recombinant murine glypican-3 (aa 25-557), R&D Systems (murine, UniProt Q8CFZ4 25-557); test: SPR, Biacore T100, GPC3-His immobilised, 1:1 fit
T1 construct: also called muGPC3; Mu GPC3-His
T1 sequence (Q8CFZ4 25-557 limits assumed, form in doubt): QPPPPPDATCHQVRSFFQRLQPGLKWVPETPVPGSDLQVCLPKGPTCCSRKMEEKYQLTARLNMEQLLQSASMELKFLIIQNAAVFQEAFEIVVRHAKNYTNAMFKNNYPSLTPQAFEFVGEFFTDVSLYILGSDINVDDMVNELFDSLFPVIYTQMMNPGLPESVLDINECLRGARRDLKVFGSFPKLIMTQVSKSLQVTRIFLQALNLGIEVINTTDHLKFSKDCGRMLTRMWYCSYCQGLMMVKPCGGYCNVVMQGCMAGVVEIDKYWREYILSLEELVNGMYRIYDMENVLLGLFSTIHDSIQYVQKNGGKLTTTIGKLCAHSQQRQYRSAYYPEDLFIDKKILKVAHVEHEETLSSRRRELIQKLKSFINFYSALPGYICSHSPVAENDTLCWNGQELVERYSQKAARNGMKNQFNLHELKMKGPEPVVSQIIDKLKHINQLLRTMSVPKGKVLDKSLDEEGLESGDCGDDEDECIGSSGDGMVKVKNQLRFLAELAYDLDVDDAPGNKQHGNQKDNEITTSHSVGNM
// return numeric value only (unit: fold, not printed)

Please review the entries below; each comes with its answer.
ADX_6077_F02 DG→DS mutant, alkylated (designed binder, C-terminal cysteine alkylated, also called P1-055667) GVSDVPRDLEVVAATPTSLLISWSDDYHAHRYYRITYGETGGNSPVQEFTVPGEHVTATISGLKPGVDYTITVYAVTYDSEKAATDWSISINYRTPC :: 3.9
ADX_6077_F02 DG→SG mutant, alkylated (designed binder, C-terminal cysteine alkylated, also called P1-055668) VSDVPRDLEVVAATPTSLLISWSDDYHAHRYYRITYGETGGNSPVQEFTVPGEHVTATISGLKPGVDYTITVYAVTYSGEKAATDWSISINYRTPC :: 4.1

Could you now look at the following binder, please?
Request: Specify measured Fold affinity (KD) difference vs alkylated parent for ADX_6077_F02 DG→AG mutant, alkylated (designed binder, C-terminal cysteine alkylated, also called P1-055669) GVSDVPRDLEVVAATPTSLLISWSDDYHAHRYYRITYGETGGNSPVQEFTVPGEHVTATISGLKPGVDYTITVYAVTYAGEKAATDWSISINYRTPC .
Result: 4
